biological target: human C5aR (Homo sapiens (Human)); test: FLIPR assay: inhibition of C5a-mediated calcium mobilization; type: cell-based; conditions: stable cell line over expressing human C5aR & Gα15, human C5a at EC50 (0.1-0.25 nM)
Sequence (P21730 whole entry): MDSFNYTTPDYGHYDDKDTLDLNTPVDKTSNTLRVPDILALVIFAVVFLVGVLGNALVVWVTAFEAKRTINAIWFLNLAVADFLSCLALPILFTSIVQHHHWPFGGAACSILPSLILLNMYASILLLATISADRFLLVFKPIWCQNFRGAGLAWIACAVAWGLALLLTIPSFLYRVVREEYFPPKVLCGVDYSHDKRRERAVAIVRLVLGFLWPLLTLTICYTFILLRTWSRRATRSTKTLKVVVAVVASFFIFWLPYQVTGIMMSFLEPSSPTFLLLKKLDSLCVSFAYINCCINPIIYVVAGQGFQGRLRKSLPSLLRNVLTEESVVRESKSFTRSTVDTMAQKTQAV
Each entry below lists one item and its recorded pIC50 value.
On this scale, pIC50 is minus log10 of a concentration expressed in M (mol/L).

Prompt line: What pIC50 value was documented for this molecule, `Cc1ccc(C(C)C)cc1N1CCc2nc(-c3c(C)ccc4[nH]nc(C)c34)nc(N3CCCC[C@H]3C)c2C1` ?
Response line: 9.00

Prompt line: Field entry: `Cc1ccc(C(C)C)cc1N1CCc2nc(-c3c(C)ccc4[nH]nc(C)c34)nc(OCCN3CCOCC3)c2C1`
Response line: 7.49

Prompt line: Field entry: `CCO[C@@H]1CCN(c2nc(-c3c(C)ccc4[nH]nc(C)c34)nc3c2CN(c2cc(C(C)C)ccc2C)CC3)[C@H](C)C1`
Response line: 9.00
